src = ChEMBL document CHEMBL1126970

- Species: Cavia porcellus
- ASSAY NOTES: Selectivity ratio between CCK-B and CCK-A receptor
- Parameters: reference not given here
Each entry below carries its reported Selectivity ratio.
TEST READOUT: Selectivity ratio

INSERT INTO measurements (compound, comparison_symbol, observed) VALUES
  ('CN1C(=O)C(NC(N)=O)N=C(c2ccccc2)c2ccccc21 (racemic)', '>', 0.5),
  ('CN1C(=O)[C@H](NC(=O)NCc2cccc(O)c2)N=C(c2ccccc2)c2ccccc21', '=', 1),
  ('CN1C(=O)C(NC(=O)Nc2ccc(Cl)nc2)N=C(c2ccccc2)c2ccccc21 (stereo not given)', '>', 65),
  ('COc1cc(NC(=O)NC2N=C(c3ccccc3)c3ccccc3N(C)C2=O)cc(OC)c1 (racemic)', '=', 0.1),
  ('CN1C(=O)C(NC(=O)Nc2cccc(C(F)(F)F)c2)N=C(c2ccccc2)c2ccccc21 (stereo not given)', '=', 195),
  ('CN1C(=O)C(NC(=O)Nc2ccc(Cl)cc2)N=C(c2ccccc2)c2ccccc21 (racemic)', '=', 15),
  ('CN1C(=O)C(NC(=O)Nc2ccc3c(c2)CCC3)N=C(c2ccccc2)c2ccccc21 (stereo not given)', '=', 333),
  ('CCN(CC)CC(=O)OCCN1C(=O)C(NC(=O)Nc2cccc(C)c2)N=C(c2ccccc2)c2ccccc21 (racemic)', '=', 34),
  ('Cc1cc(C)cc(NC(=O)NC2N=C(c3ccccc3)c3ccccc3N(C)C2=O)c1 (stereo not given)', '=', 2.7),
  ('CN1CCN(C(=O)CN2C(=O)C(NC(=O)Nc3ccc(Cl)cc3)N=C(c3ccccc3)c3ccccc32)CC1 (racemic)', '=', 1500);
